Here, each record is paired with measured Ki data.
- Study System: hsst1 (Homo sapiens, UniProt P30872)
- Construct: expressed in transfected cells
- Sequence (P30872 whole entry): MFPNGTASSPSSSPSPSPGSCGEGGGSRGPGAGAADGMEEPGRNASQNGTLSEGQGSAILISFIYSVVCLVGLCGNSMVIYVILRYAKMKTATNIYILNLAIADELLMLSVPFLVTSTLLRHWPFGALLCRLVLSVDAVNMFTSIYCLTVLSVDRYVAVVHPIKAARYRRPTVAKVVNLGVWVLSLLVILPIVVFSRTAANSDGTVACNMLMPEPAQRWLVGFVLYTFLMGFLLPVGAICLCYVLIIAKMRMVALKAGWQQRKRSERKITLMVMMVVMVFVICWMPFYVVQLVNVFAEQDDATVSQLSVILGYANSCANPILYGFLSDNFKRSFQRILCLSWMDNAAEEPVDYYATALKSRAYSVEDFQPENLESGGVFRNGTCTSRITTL
- Method Description: Somatostatin receptor radioligand binding assay, hsst1
- Stated Conditions: CHO-K1 membranes, [125I-Tyr11]SS-14; read-out: hsst1 Ki
Write the number in µM without appending the unit.

Below are worked cases with known answers.
# Molecule, Ki (µM)
measured = [
    ("CCCN1C[C@H](CSCC(=O)NCCN2CCN(CC(=O)N[C@H](Cc3ccccc3)C(=O)N[C@H]3CSSC[C@@H](C(=O)N[C@H](C(N)=O)[C@@H](C)O)NC(=O)[C@H](C(C)C)NC(=O)[C@H](CCCCN)NC(=O)[C@@H](Cc4c[nH]c5ccccc45)NC(=O)[C@H](Cc4ccc(O)c(I)c4)NC3=O)CC2)C[C@@H]2c3cccc4[nH]cc(c34)C[C@H]21 [Example 25]", 1),
    ("CCCN1C[C@H](CSCC(=O)NCCOCCOCC(=O)N[C@H](Cc2ccccc2)C(=O)N[C@H]2CSSC[C@@H](C(=O)N[C@H](C(N)=O)[C@@H](C)O)NC(=O)[C@H](CC)NC(=O)[C@H](CCCCN)NC(=O)[C@@H](Cc3c[nH]c4ccccc34)NC(=O)[C@H](Cc3ccc(O)cc3)NC2=O)C[C@@H]2c3cccc4[nH]cc(c34)C[C@H]21 [Example 8]", 1.55),
]

Pending molecule:
Given item CC[C@@H]1NC(=O)[C@H](CCCCN)NC(=O)[C@@H](Cc2c[nH]c3ccccc23)NC(=O)[C@H](Cc2ccc(O)cc2)NC(=O)[C@@H](NC(=O)[C@@H](Cc2ccccc2)NC(=O)COCCOCCNC(=O)CSC[C@@H]2C[C@@H]3c4cccc5[nH]cc(c45)C[C@H]3N(C)C2)CSSC[C@@H](C(=O)N[C@H](C(N)=O)[C@@H](C)O)NC1=O [Example 40] , the value recorded as its Ki is 1
